- Tested on: HCCLM3
- Assay type: cell-based
- settings: 72 h
No end group written: not given here.
In this section, each of the sequences is paired with its reported IC50.

sequence_record | IC50
PQGQGPPSGPGQPAPA [compound 16] | > 1000 µM

Could you now consider this next sequence?
Short answer for PAGWEMAKTSSGQRYF [compound 20] : IC50 was > 1000 µM

----------
- assay: in vitro
- settings: plasma
Positions of bridges follow the written chain, without caps; N, C: chain ends. Non-standard residues stand in square brackets, D forms with d. Residues, ends and D or L forms follow the SMILES beside them. hCys = N[C@@H](CCS)C(=O)O
assay_endpoint: remaining at 4 h
Answer with the figure and its unit, nothing else.

Consider CSCC[C@H](NC(=O)[C@@H]1CCCN1C(=O)[C@@H](N)C(C)C)C(=O)N[C@H]1CCSSC[C@@H](C(=O)N[C@@H](CC(=O)O)C(=O)N2CCC[C@H]2C(=O)N2CCC[C@H]2C(=O)N[C@@H](CCC(=O)O)C(=O)O)NC(=O)[C@H](Cc2ccccc2)NC(=O)[C@H](CO)NC(=O)[C@H](CS)NC(=O)[C@@H]2CCCN2C(=O)[C@H](CC(C)C)NC(=O)[C@H](CCCCN)NC(=O)[C@H](CCCNC(=N)N)NC(=O)[C@H](CC(C)C)NC1=O [compound 9] (H-VPM[hCys]LRKLPCSFCDPPE-OH; disulfide 4-13) . Its measured remaining at 4 h is 100%

----------
- Tested on: BEL7404
- Format: cell-based
- settings: 72 h
- Experimental: The hepatoma cell line BEL7404 (purchased from The Chinese Academy of Sciences cell bank) was a cell line with high expression of YAP protein; HCCLM3 (purchased from The Chinese Academy of Sciences cell bank) was a cell line with low expression of YAP protein. […] Moreover, IC50 values of the cells in 1.1 were determined using CCK-8 kit. […]
No end group written: not given here.
Examples of sequences with documented IC50 follow.
State just the number; it will be interpreted in µM.

sequence_record | IC50 [µM]
PQGQGPPSGPGQPAPA [compound 16] | 242

Lookup result for PAGWEMAKTSSGQRYF [compound 20] ; measured IC50: 444

----------
- assay: Stability in plasma (residual peptide)
- settings: plasma
assay_endpoint: remaining at 4 h (%)
I only need the number, in %, no unit after it.

The recorded remaining at 4 h for CSCC[C@H](NC(=O)[C@@H]1CCCN1C(=O)[C@@H](N)C(C)C)C(=O)N[C@@H](CCCNC(=N)N)C(=O)N[C@@H](CC(C)C)C(=O)N[C@@H](CCCNC(=N)N)C(=O)N[C@@H](CCCCN)C(=O)N[C@@H](CC(C)C)C(=O)N1CCC[C@H]1C(=O)N[C@@H](CC(=O)O)C(=O)N[C@@H](CO)C(=O)N[C@@H](Cc1ccccc1)C(=O)N[C@@H](Cc1ccccc1)C(=O)N[C@@H](CCCCN)C(=O)N1CCC[C@H]1C(=O)N1CCC[C@H]1C(=O)N[C@@H](CCC(=O)O)C(=O)O [SEQ ID NO.: 1] is 0

----------
- Tested on: BEL7404
- Type: cell-based
- settings: concentration of 1% in cell cultivating for 72 h; read-out: IC50 BEL7404
assay_endpoint: IC50 (µM)
Answer with a number only, understood to be in µM.

// sample 32 (VPXLXKKXPASFKCPPRRMKWKK; (3)..(3) Xaa=(3Cl-)F; (5)..(5) Xaa=Hcy; (8)..(8) Xaa=Nle) [compound 32] , its IC50 was 38.4
